assay: Cmax in Sprague-Dawley rat at 20 mg/kg, po measured upto 1440 mins by LC-MS/MS analysis; assay type: ADME, organism-based; details: in vivo
measured_endpoint: Cmax (ng/mL)
Answers are plain numbers, in ng/mL.

Problem: // query Cmax value for entry `N#Cc1ccc(N2C(=O)CN(CCCN3CCCc4ccccc43)C2=S)cc1C(F)(F)F`
Solution: 92.1

====

assay: Clearance in Sprague-Dawley rat at 5 mg/kg, iv measured upto 1440 mins by LC-MS/MS analysis; type: ADME, organism-based; conditions: in vivo
measured_endpoint: clearance

Problem: // query clearance value for entry `N#Cc1ccc(N2C(=O)CN(CCCN3CCCc4ccccc43)C2=S)cc1C(F)(F)F`
Solution: 15.7 mL/min/kg
